experimental-system: ALK (human) (UniProt Q9UM73)
Sequence (Q9UM73 whole entry, looked up): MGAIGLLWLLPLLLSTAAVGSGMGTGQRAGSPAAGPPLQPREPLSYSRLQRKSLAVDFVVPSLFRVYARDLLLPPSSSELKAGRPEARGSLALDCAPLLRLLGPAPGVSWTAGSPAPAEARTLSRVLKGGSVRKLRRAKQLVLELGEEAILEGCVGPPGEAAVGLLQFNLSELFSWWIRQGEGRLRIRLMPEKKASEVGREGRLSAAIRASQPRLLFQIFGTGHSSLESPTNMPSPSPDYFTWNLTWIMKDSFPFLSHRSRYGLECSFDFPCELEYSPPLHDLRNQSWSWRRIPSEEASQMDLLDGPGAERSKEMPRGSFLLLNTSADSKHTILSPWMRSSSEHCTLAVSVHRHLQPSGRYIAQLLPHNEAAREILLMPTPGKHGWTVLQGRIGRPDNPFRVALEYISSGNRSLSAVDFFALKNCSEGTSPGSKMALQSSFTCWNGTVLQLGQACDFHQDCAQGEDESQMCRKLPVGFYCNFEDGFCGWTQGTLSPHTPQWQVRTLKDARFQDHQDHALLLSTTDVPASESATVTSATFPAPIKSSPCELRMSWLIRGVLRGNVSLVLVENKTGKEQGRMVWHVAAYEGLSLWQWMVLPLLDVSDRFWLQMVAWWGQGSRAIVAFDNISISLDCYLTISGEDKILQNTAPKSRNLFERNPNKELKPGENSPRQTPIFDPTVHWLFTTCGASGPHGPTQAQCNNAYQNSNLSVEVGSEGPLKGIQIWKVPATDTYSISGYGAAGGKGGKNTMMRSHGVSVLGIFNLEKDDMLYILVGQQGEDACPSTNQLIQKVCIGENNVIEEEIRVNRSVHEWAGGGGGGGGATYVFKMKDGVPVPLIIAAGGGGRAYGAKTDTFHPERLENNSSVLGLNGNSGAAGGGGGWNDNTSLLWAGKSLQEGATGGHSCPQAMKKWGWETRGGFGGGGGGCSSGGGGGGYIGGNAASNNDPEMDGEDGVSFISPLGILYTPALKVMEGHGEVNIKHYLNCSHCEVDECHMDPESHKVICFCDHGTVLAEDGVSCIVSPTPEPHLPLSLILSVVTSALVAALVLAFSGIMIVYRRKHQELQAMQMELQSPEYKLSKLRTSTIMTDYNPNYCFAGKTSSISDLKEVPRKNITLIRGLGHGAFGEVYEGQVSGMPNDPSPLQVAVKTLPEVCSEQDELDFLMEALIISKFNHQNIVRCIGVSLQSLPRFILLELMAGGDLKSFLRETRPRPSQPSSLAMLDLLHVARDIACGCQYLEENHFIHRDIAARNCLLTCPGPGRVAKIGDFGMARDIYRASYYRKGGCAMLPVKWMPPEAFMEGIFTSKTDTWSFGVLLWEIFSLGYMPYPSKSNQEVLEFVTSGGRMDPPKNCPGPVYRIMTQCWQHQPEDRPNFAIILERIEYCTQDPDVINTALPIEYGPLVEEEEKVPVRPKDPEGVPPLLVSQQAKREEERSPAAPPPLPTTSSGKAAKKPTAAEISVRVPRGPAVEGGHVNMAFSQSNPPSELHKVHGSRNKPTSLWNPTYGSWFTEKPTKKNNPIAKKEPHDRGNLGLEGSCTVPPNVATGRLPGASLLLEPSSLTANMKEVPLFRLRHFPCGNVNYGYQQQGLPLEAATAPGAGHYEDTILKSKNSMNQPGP
method-summary: KINOMEscan competition binding
condition-label: compound 10.0 µM

[
  {
    "smiles-notation": "CCCS(=O)(=O)Nc1ccc(F)c(C(=O)c2c[nH]c3ncc(Cl)cc23)c1F",
    "unit-tag": "%",
    "kinase still bound, per cent of control": 14
  },
  {
    "smiles-notation": "Cc1cn(-c2cc(C(=O)Nc3ccc(C)c(NC(=O)c4ccno4)c3)cc(C(F)(F)F)c2)cn1",
    "unit-tag": "%",
    "kinase still bound, per cent of control": 100
  },
  {
    "smiles-notation": "CCN1CCN(Cc2ccc(NC(=O)c3ccc(C)c(/C=C/c4cnc5[nH]ccc5c4OC)c3)cc2C(F)(F)F)CC1",
    "unit-tag": "%",
    "kinase still bound, per cent of control": 51
  },
  {
    "smiles-notation": "CNC(=O)Nc1ccc(-c2nc(N3CC4CCC(C3)O4)c3cnn(C4CCC5(CC4)OCCO5)c3n2)cc1",
    "unit-tag": "%",
    "kinase still bound, per cent of control": 42
  },
  {
    "smiles-notation": "N#Cc1cc(-c2ccnc(Nc3ccc(-n4cnc(-c5cccnc5)n4)cc3)n2)cc(N2CCOCC2)c1",
    "unit-tag": "%",
    "kinase still bound, per cent of control": 100
  },
  {
    "smiles-notation": "O=c1[nH]c2ccccc2n1C1CCN(Cc2ccc(-c3nc4cc5[nH]cnc5cc4nc3-c3ccccc3)cc2)CC1",
    "unit-tag": "%",
    "kinase still bound, per cent of control": 37
  },
  {
    "smiles-notation": "COc1cc2c(Nc3ccc(NC(=O)c4ccccc4)cc3)ncnc2cc1OCCCN1CCOCC1",
    "unit-tag": "%",
    "kinase still bound, per cent of control": 26
  },
  {
    "smiles-notation": "COc1ccc(N(C(=O)Oc2cc(C(=O)Nc3cccc(C(F)(F)F)c3)ccc2C)c2ccnc(Nc3ccc(N4CCN(C)CC4)cc3)n2)c(OC)c1",
    "unit-tag": "%",
    "kinase still bound, per cent of control": 10
  }
]

----------
Reported kinase still bound, per cent of control is given for each of the following compounds.
experimental-system: MAP3K1 (human) (UniProt Q13233)
Sequence (Q13233 whole entry, looked up): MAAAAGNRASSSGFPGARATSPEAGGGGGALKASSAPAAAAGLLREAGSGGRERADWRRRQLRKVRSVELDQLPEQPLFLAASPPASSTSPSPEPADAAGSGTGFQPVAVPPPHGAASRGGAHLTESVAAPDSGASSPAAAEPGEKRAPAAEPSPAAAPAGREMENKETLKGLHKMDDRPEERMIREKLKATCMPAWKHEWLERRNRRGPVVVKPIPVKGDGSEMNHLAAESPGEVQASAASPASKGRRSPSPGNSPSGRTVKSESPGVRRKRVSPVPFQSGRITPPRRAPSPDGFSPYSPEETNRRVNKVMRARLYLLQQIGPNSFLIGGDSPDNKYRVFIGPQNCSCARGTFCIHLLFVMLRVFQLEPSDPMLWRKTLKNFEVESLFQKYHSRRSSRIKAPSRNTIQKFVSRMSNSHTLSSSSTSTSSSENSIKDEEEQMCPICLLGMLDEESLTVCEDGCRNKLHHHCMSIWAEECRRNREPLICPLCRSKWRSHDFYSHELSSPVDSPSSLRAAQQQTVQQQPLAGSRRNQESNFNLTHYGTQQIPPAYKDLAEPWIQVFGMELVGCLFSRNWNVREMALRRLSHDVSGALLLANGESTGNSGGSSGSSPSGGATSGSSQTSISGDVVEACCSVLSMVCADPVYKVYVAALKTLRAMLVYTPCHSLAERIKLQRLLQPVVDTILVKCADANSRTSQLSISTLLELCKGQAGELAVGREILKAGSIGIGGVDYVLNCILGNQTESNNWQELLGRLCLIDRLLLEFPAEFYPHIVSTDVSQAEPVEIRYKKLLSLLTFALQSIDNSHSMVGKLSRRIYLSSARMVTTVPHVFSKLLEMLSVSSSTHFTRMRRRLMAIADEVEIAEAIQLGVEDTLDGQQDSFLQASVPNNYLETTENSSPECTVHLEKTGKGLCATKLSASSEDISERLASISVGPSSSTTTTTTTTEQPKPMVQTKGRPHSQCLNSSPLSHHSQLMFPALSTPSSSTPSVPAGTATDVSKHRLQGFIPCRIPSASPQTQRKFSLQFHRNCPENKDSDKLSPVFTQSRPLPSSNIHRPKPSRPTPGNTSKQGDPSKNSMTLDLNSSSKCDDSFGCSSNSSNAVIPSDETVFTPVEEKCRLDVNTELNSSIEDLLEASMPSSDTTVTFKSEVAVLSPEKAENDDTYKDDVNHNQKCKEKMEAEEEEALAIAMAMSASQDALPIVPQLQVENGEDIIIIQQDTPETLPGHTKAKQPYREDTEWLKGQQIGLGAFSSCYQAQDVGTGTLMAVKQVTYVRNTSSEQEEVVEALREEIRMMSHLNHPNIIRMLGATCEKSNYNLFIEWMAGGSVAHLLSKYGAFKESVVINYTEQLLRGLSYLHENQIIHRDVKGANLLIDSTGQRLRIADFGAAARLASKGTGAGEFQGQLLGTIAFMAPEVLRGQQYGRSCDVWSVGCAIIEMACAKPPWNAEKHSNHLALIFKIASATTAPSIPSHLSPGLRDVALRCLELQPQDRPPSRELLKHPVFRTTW
method-summary: KINOMEscan competition binding
condition-label: compound 10.0 µM
quantity-measured: kinase still bound, per cent of control (%)

[
  {
    "compound": "CCOc1cc(N2CCC(O)CC2)ccc1Nc1ncc2c(n1)N(C)c1ccccc1C(=O)N2C",
    "experimental-system": "MAP3K1 (human) (UniProt Q13233)",
    "recorded-number": 100
  },
  {
    "compound": "C=CC(=O)Nc1ccc(C(=O)c2sc(Nc3ccc(N4CCN(C)CC4)cc3OC)nc2N)cc1",
    "experimental-system": "MAP3K1 (human) (UniProt Q13233)",
    "recorded-number": 100
  },
  {
    "compound": "CNC(=O)Nc1ccc(-c2nc(N3CC4CCC(C3)O4)c3cnn(C4CCC5(CC4)OCCO5)c3n2)cc1",
    "experimental-system": "MAP3K1 (human) (UniProt Q13233)",
    "recorded-number": 58
  },
  {
    "compound": "CC(=O)c1c(C)c2cnc(Nc3ccc(N4CCNCC4)cn3)nc2n(C2CCCC2)c1=O",
    "experimental-system": "MAP3K1 (human) (UniProt Q13233)",
    "recorded-number": 87
  },
  {
    "compound": "O=c1[nH]c2ccccc2n1C1CCN(Cc2ccc(-c3nc4cc5[nH]cnc5cc4nc3-c3ccccc3)cc2)CC1",
    "experimental-system": "MAP3K1 (human) (UniProt Q13233)",
    "recorded-number": 80
  },
  {
    "compound": "CC1=C(C(=O)Nc2cc3cn[nH]c3cc2F)C(c2ccc(C(F)(F)F)cc2)CC(=O)N1 (centres undefined)",
    "experimental-system": "MAP3K1 (human) (UniProt Q13233)",
    "recorded-number": 90
  },
  {
    "compound": "N#Cc1cc(-c2ccnc(Nc3ccc(-n4cnc(-c5cccnc5)n4)cc3)n2)cc(N2CCOCC2)c1",
    "experimental-system": "MAP3K1 (human) (UniProt Q13233)",
    "recorded-number": 100
  },
  {
    "compound": "N#C/C(=C1/Nc2ccccc2S1)c1ccnc(NCCc2cccnc2)n1",
    "experimental-system": "MAP3K1 (human) (UniProt Q13233)",
    "recorded-number": 65
  },
  {
    "compound": "CCCS(=O)(=O)Nc1ccc(F)c(C(=O)c2c[nH]c3ncc(Cl)cc23)c1F",
    "experimental-system": "MAP3K1 (human) (UniProt Q13233)",
    "recorded-number": 73
  }
]

----------
experimental-system: CDK8 (human) (UniProt P49336)
Sequence (P49336 whole entry, looked up): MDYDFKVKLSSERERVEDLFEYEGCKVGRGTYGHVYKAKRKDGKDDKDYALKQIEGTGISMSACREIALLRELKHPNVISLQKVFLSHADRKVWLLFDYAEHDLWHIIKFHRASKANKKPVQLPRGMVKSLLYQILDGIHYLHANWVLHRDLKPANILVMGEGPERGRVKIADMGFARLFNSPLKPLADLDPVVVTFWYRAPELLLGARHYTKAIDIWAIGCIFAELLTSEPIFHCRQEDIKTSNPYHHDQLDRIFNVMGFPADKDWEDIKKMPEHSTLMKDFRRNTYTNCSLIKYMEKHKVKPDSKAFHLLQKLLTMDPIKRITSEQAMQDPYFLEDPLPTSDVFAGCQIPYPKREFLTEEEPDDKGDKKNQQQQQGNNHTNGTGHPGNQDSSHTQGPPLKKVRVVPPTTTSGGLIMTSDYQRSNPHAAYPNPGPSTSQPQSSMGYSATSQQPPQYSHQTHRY
method-summary: KINOMEscan competition binding
condition-label: compound 10.0 µM
quantity-measured: kinase still bound, per cent of control

[
  {
    "compound": "CCN(CCO)CCCOc1ccc2c(Nc3cc(CC(=O)Nc4cccc(F)c4)[nH]n3)ncnc2c1",
    "result": "75%"
  },
  {
    "compound": "COc1cc(C)c(Sc2cnc(NC(=O)c3ccc(CNC(C)C(C)C)cc3)s2)cc1C(=O)N1CCN(C(C)=O)CC1 (configuration not stated)",
    "result": "100%"
  },
  {
    "compound": "CCN1CCN(Cc2ccc(NC(=O)c3ccc(C)c(/C=C/c4cnc5[nH]ccc5c4OC)c3)cc2C(F)(F)F)CC1",
    "result": "21%"
  },
  {
    "compound": "COc1cc2c(Nc3ccc(NC(=O)c4ccccc4)cc3)ncnc2cc1OCCCN1CCOCC1",
    "result": "100%"
  },
  {
    "compound": "O=c1[nH]c2ccccc2n1C1CCN(Cc2ccc(-c3nc4cc5[nH]cnc5cc4nc3-c3ccccc3)cc2)CC1",
    "result": "100%"
  },
  {
    "compound": "C=CC(=O)Nc1ccc(C(=O)c2sc(Nc3ccc(N4CCN(C)CC4)cc3OC)nc2N)cc1",
    "result": "100%"
  },
  {
    "compound": "CCOc1cc(N2CCC(O)CC2)ccc1Nc1ncc2c(n1)N(C)c1ccccc1C(=O)N2C",
    "result": "100%"
  },
  {
    "compound": "CNC(=O)Nc1ccc(-c2nc(N3CC4CCC(C3)O4)c3cnn(C4CCC5(CC4)OCCO5)c3n2)cc1",
    "result": "100%"
  },
  {
    "compound": "Cc1cn(-c2cc(C(=O)Nc3ccc(C)c(NC(=O)c4ccno4)c3)cc(C(F)(F)F)c2)cn1",
    "result": "100%"
  },
  {
    "compound": "COc1ccc(N(C(=O)Oc2cc(C(=O)Nc3cccc(C(F)(F)F)c3)ccc2C)c2ccnc(Nc3ccc(N4CCN(C)CC4)cc3)n2)c(OC)c1",
    "result": "100%"
  },
  {
    "compound": "CCCS(=O)(=O)Nc1ccc(F)c(C(=O)c2c[nH]c3ncc(Cl)cc23)c1F",
    "result": "2.2%"
  },
  {
    "compound": "COc1cc(N2CCC(C(N)=O)CC2)ccc1Nc1nc(N)c(Cl)c(Nc2ccccc2S(=O)(=O)C(C)C)n1",
    "result": "100%"
  },
  {
    "compound": "N#C/C(=C1/Nc2ccccc2S1)c1ccnc(NCCc2cccnc2)n1",
    "result": "100%"
  },
  {
    "compound": "COc1cc2ncnc(Nc3cccc(Cl)c3)c2cc1OC",
    "result": "100%"
  },
  {
    "compound": "CCc1nc(-c2cccc(C)c2)c(-c2ccnc(NC(=O)c3ccccc3)c2)s1",
    "result": "88%"
  },
  {
    "compound": "CC1=C(C(=O)Nc2cc3cn[nH]c3cc2F)C(c2ccc(C(F)(F)F)cc2)CC(=O)N1 (configuration not stated)",
    "result": "79%"
  },
  {
    "compound": "N#Cc1cc(-c2ccnc(Nc3ccc(-n4cnc(-c5cccnc5)n4)cc3)n2)cc(N2CCOCC2)c1",
    "result": "80%"
  }
]

----------
experimental-system: STK36 (human)
method-summary: KINOMEscan competition binding
condition-label: compound 10.0 µM

[
  {
    "molecule": "CCCS(=O)(=O)Nc1ccc(F)c(C(=O)c2c[nH]c3ncc(Cl)cc23)c1F",
    "experimental-system": "STK36 (human)",
    "kinase still bound, per cent of control, %": 18
  },
  {
    "molecule": "Cc1cn(-c2cc(C(=O)Nc3ccc(C)c(NC(=O)c4ccno4)c3)cc(C(F)(F)F)c2)cn1",
    "experimental-system": "STK36 (human)",
    "kinase still bound, per cent of control, %": 100
  },
  {
    "molecule": "C=CC(=O)Nc1ccc(C(=O)c2sc(Nc3ccc(N4CCN(C)CC4)cc3OC)nc2N)cc1",
    "experimental-system": "STK36 (human)",
    "kinase still bound, per cent of control, %": 90
  },
  {
    "molecule": "COc1cc(N2CCC(C(N)=O)CC2)ccc1Nc1nc(N)c(Cl)c(Nc2ccccc2S(=O)(=O)C(C)C)n1",
    "experimental-system": "STK36 (human)",
    "kinase still bound, per cent of control, %": 100
  },
  {
    "molecule": "COc1cc2c(Nc3ccc(NC(=O)c4ccccc4)cc3)ncnc2cc1OCCCN1CCOCC1",
    "experimental-system": "STK36 (human)",
    "kinase still bound, per cent of control, %": 98
  },
  {
    "molecule": "CC(=O)c1c(C)c2cnc(Nc3ccc(N4CCNCC4)cn3)nc2n(C2CCCC2)c1=O",
    "experimental-system": "STK36 (human)",
    "kinase still bound, per cent of control, %": 78
  },
  {
    "molecule": "CC1=C(C(=O)Nc2cc3cn[nH]c3cc2F)C(c2ccc(C(F)(F)F)cc2)CC(=O)N1 (centres undefined)",
    "experimental-system": "STK36 (human)",
    "kinase still bound, per cent of control, %": 96
  },
  {
    "molecule": "N#Cc1cc(-c2ccnc(Nc3ccc(-n4cnc(-c5cccnc5)n4)cc3)n2)cc(N2CCOCC2)c1",
    "experimental-system": "STK36 (human)",
    "kinase still bound, per cent of control, %": 15
  },
  {
    "molecule": "CNC(=O)Nc1ccc(-c2nc(N3CC4CCC(C3)O4)c3cnn(C4CCC5(CC4)OCCO5)c3n2)cc1",
    "experimental-system": "STK36 (human)",
    "kinase still bound, per cent of control, %": 96
  }
]
